biological target: HIV-1 Env of isolate MGRM-D-024 (subtype D) (HIV-1); experiment: cell-based or functional assay
ASSAY ENDPOINT: IC50 (neutralization)

- BINDER: "PGT-127 (antibody, V domains shown) VH: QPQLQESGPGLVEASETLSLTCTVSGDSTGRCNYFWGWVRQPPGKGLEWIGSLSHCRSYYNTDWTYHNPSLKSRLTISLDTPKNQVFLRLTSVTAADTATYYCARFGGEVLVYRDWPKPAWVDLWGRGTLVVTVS VL: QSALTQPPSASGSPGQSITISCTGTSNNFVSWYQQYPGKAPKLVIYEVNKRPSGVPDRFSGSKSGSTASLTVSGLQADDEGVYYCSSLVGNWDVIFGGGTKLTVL"
  RESULT: "1.95 µg/mL"
- BINDER: "PGT-136 (antibody, V domains shown) VH: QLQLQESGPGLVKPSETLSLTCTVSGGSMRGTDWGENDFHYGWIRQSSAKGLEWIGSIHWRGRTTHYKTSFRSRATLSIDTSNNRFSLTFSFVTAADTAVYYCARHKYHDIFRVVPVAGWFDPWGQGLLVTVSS VL: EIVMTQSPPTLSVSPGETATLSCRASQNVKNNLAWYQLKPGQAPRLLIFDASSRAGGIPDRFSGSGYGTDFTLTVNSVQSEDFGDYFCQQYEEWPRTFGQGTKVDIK"
  RESULT: "> 50 µg/mL"
- BINDER: "PGT-135 (antibody, V domains shown) VH: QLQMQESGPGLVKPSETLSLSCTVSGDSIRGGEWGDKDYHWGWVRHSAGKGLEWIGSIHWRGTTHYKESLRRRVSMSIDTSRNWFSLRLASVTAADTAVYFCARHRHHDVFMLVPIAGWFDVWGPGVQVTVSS VL: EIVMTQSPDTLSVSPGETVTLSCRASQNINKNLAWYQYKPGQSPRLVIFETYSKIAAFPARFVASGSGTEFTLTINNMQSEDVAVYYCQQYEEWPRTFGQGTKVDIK"
  RESULT: "> 50 µg/mL"
- BINDER: "PGT-137 (antibody, V domains shown) VH: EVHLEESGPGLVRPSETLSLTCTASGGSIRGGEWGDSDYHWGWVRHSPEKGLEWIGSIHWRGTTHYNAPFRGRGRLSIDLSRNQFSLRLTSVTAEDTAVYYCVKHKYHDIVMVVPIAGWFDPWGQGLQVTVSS VL: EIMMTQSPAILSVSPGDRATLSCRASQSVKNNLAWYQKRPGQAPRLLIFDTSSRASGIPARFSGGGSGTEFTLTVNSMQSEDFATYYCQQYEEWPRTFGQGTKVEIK"
  RESULT: "> 50 µg/mL"
- BINDER: "PGT-130 (antibody, V domains shown) VH: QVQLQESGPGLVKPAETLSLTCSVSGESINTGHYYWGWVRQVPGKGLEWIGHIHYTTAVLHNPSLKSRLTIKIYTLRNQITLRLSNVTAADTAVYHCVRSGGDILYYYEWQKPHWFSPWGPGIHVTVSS VL: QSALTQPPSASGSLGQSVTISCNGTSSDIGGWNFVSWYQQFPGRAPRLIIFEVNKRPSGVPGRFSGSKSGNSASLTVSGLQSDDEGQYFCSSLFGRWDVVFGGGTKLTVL"
  RESULT: "> 50 µg/mL"
